biological target: Melanocortin receptor 3 (Homo sapiens); experiment: Displacement of [125I]NDP-MSH from human recombinant MC3 receptor expressed in Sf9 cells

{"columns": ["compound", "Ki / µM"],
 "data": [
  ["NCCCN(Cc1ccc2ccccc2c1)C(=O)Cc1c[nH]c2ccccc12", 63],
  ["NCCCN(Cc1ccc2ccccc2c1)C(=O)CCCc1c[nH]c2ccccc12", 26],
  ["N[C@@H]1CCCC[C@H]1N(C/C=C/c1ccccc1)C(=O)CCCc1c[nH]c2ccccc12", 62],
  ["NC1CCC(CC2CCC(N(CCc3c(F)cccc3Cl)C(=O)CCCc3c[nH]c4ccccc34)CC2)CC1 (centres undefined)", 24],
  ["COc1cc(Cl)c(CN(C(=O)CCCc2c[nH]c3ccccc23)C2CCC(CC3CCC(N)CC3)CC2)cc1OC (stereo in doubt; form 2)", 25],
  ["NCCCCCCCCN(C/C=C/c1ccccc1)C(=O)CCc1c[nH]c2ccccc12", 24],
  ["NC1CCC(CC2CCC(N(Cc3c(F)cccc3Cl)C(=O)CCCc3c(Cc4ccc(O)cc4)[nH]c4ccccc34)CC2)CC1 (centres undefined)", 23],
  ["COc1ccc2c(c1)c(CC(=O)N(CCCCN)C/C(C)=C/c1ccccc1)c(C)n2C(=O)c1ccc(Cl)cc1", 30],
  ["NCCCCCCCN(C/C(Cl)=C/c1ccccc1)C(=O)CCCc1c[nH]c2ccccc12", 42]
]}

###

molecular target: Melanocyte-stimulating hormone receptor (Mus musculus, UniProt Q01727); test: Displacement of [125I]NDP-MSH from MC1 receptor in mouse B16 cells; format: cell-based
Sequence (Q01727 whole entry): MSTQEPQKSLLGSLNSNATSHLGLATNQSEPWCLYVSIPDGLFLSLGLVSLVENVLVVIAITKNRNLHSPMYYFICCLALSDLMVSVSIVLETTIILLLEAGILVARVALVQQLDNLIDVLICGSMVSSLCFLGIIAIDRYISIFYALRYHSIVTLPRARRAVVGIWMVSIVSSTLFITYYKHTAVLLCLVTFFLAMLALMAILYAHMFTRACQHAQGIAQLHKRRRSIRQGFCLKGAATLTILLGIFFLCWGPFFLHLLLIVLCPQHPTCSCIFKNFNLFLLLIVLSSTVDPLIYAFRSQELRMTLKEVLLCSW
Ki: recorded values
property label: Ki

{"columns": ["compound", "property label", "observed result"],
 "data": [
  ["COC(=O)c1ccc(CN(C(=O)CCCc2c[nH]c3ccccc23)C2CCC(CC3CCC(N)CC3)CC2)cc1 (stereo not drawn)", "Ki", "2.1 µM"],
  ["COc1cc(Br)c(CN(C(=O)CCCc2c[nH]c3ccccc23)[C@H]2CC[C@@H](C[C@H]3CC[C@@H](N)CC3)CC2)cc1OC", "Ki", "2.3 µM"],
  ["C=C(Br)CN(C(=O)CCCc1c[nH]c2ccccc12)C1CCC(CC2CCC(N)CC2)CC1 (stereo in doubt; form 2)", "Ki", "1.4 µM"],
  ["NCCCCN(Cc1ccccc1)C(=O)CCCc1c[nH]c2ccccc12", "Ki", "12 µM"],
  ["COc1ccc2c(c1)c(CC(=O)N(CCCCN)C/C(C)=C/c1ccccc1)c(C)n2C(=O)c1ccc(Cl)cc1", "Ki", "1.8 µM"],
  ["CCN(CC)c1ccc(CN(CCCCCN)C(=O)CCCc2c[nH]c3ccccc23)cc1", "Ki", "6.8 µM"],
  ["NC1CCC(CC2CCC(N(Cc3ccccc3Cl)C(=O)CCCc3c(Cc4ccc(O)cc4)[nH]c4ccccc34)CC2)CC1 (stereo not drawn)", "Ki", "6.6 µM"],
  ["CCC(c1ccccc1)N(CCCCN)C(=O)CCc1c[nH]c2ccccc12 (stereo not drawn)", "Ki", "15 µM"]
]}

###

# pKi per entry
molecular target: Melanocortin receptor 3 (Homo sapiens, UniProt P41968); assay: Displacement of [125I]NDP-MSH from human recombinant MC3 receptor expressed in Sf9 cells
Sequence (P41968 whole entry): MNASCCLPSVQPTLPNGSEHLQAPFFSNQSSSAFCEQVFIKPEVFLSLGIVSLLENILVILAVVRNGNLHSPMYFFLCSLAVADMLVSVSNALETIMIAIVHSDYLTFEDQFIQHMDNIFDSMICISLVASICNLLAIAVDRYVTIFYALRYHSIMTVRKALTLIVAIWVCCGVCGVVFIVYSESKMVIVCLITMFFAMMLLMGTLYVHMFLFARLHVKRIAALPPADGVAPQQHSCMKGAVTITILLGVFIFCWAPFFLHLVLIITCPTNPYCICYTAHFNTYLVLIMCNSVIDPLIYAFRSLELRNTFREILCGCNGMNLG
pKi: −log10 of the molar value.

{"columns": ["molecule", "pKi"],
 "data": [
  ["NCCCCCN(C/C(Cl)=C\\c1ccccc1)C(=O)/C=C/c1c[nH]c2ccccc12", 4.57],
  ["N=C(N)NC1CCC(CC2CCC(N(Cc3ccccc3)C(=O)CCCc3c[nH]c4ccccc34)CC2)CC1 (stereo not given)", 4.72],
  ["NCCCN(Cc1ccc2ccccc2c1)C(=O)Cc1ccc2ccccc2c1", 4.92],
  ["C/C(=C\\c1ccccc1)CN(CCCN)C(=O)c1c[nH]c2ccccc12", 4.62],
  ["NCCCCCN(C(=O)CCCc1c[nH]c2ccccc12)C1C2CC3CC(C2)CC1C3 (stereo not given)", 4.60],
  ["N=C(N)NCCN(Cc1ccc2ccccc2c1)C(=O)CCCc1c[nH]c2ccccc12", 3.69],
  ["NC1CCC(CC2CCC(N(C/C(Cl)=C/c3ccccc3)C(=O)COc3ccc4ccccc4c3)CC2)CC1 (stereo in doubt; form 8)", 4.21],
  ["COc1ccc(CN(C(=O)CCCc2c[nH]c3ccccc23)C2CCC(CC3CCC(N)CC3)CC2)cc1Br (stereo not given)", 5.03],
  ["NCCCN(C/C(Cl)=C/c1ccccc1)C(=O)C(=O)c1c[nH]c2ccccc12", 5.13],
  ["C/C(=C\\c1ccccc1)CN(CCCCCCN)C(=O)c1cc2cc(O)ccc2[nH]1", 4.57],
  ["NCCCCCN(C/C=C\\c1ccccc1)C(=O)CCCc1c[nH]c2ccccc12", 4.44],
  ["NCCCCCN(CCCc1ccccc1)C(=O)Cc1c[nH]c2ccccc12", 4.33],
  ["NC1CCC(CC2CCC(N(Cc3ccccc3Br)C(=O)CCCc3c[nH]c4ccccc34)CC2)CC1 (stereo not given)", 4.10],
  ["NCCN(C(=O)Cc1c[nH]c2ccccc12)C1CCc2ccccc2C1 (stereo not given)", 4.80],
  ["CSc1ccc(CN(C(=O)CCCc2c[nH]c3ccccc23)C2CCC(CC3CCC(N)CC3)CC2)cc1 (stereo not given)", 3.60],
  ["NCC1CCC(CN(C/C(Cl)=C/c2ccccc2)C(=O)CCCc2c[nH]c3ccccc23)CC1 (stereo not given)", 4.48],
  ["NCCCN(C(=O)c1c[nH]c2ccccc12)C1CCc2ccccc2C1 (stereo not given)", 3.88],
  ["NCCCCCN(CCCc1ccccc1)C(=O)CCCc1c[nH]c2ccccc12", 4.21],
  ["N=C(N)NCCCN(Cc1ccc2ccccc2c1)C(=O)CCc1c[nH]c2ccccc12", 4.28],
  ["N[C@H]1CC[C@H](NC(=O)NC2CCCC(N(Cc3ccccc3)C(=O)CCCc3c[nH]c4ccccc34)C2)CC1 (stereo not given in full)", 4.23]
]}

###

target: Melanocortin receptor 5 (Homo sapiens, UniProt P33032); assay: Displacement of [125I]NDP-MSH from human recombinant MC5 receptor expressed in Sf9 cells
Sequence (P33032 whole entry): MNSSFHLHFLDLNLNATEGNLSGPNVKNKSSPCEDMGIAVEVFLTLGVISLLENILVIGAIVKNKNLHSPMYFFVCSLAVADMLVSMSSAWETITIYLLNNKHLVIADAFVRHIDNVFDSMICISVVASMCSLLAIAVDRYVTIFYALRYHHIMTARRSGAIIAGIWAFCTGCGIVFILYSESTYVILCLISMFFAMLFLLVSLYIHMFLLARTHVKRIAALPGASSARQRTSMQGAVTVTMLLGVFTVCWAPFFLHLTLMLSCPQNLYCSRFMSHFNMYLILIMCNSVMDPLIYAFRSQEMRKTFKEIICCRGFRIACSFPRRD
pKi: −log10 of the molar value.
Listed here: items and their measured pKi.

{"columns": ["compound", "pKi"],
 "data": [
  ["NCCCN(Cc1ccc2ccccc2c1)C(=O)Cc1ccc2ccccc2c1", 3.57],
  ["CC1CC(CC2CCC(N(C/C(Cl)=C/c3ccccc3)C(=O)CCCc3c[nH]c4ccccc34)C(C)C2)CCC1N (stereo in doubt; form 1)", 5.04],
  ["NCCCCCCN(C/C(Cl)=C/c1ccccc1)C(=O)CCCc1c[nH]c2ccccc12", 4.68],
  ["CC(c1ccc(C(F)(F)F)cc1)N(CCCCCN)C(=O)Cc1c[nH]c2ccccc12 (stereo not given)", 4.96],
  ["NCCCCCN(Cc1ccccc1)C(=O)[C@@H](N)Cc1c[nH]c2ccccc12", 4.27]
]}

###

# pKi annotations
molecular target: Melanocortin receptor 5 (Homo sapiens); experiment: Displacement of [125I]NDP-MSH from human recombinant MC5 receptor expressed in Sf9 cells
pKi: −log10 of the molar value.

{"columns": ["molecule", "pKi"],
 "data": [
  ["NCCCCCN(Cc1ccccc1)C(=O)CCCc1c[nH]c2ccccc12", 5.34],
  ["COc1ccc(CN(C(=O)CCCc2c(Cc3ccc(O)cc3)[nH]c3ccccc23)C2CCC(CC3CCC(N)CC3)CC2)cc1OC (stereo not given)", 4.96],
  ["CCCCCN(Cc1ccc(N(CC)CC)cc1)C(=O)CCCc1c[nH]c2ccccc12", 3.39],
  ["NCCCCN(Cc1ccccc1)C(=O)CCCc1c(Cc2ccc(O)cc2)[nH]c2ccccc12", 5.34],
  ["NCCCN1CCN(CCCN(Cc2ccccc2)C(=O)CCCc2c[nH]c3ccccc23)CC1", 4.66]
]}

###

target: Melanocortin receptor 3 (Homo sapiens); test: Displacement of [125I]NDP-MSH from human recombinant MC3 receptor expressed in Sf9 cells

{"columns": ["compound", "Ki"],
 "data": [
  ["NC1CCC(CC2CCC(N(Cc3c(F)cccc3F)C(=O)CCCc3c[nH]c4ccccc34)CC2)CC1 (stereo not drawn)", "52 µM"],
  ["NC1CCC(CC2CCC(N(C/C(Cl)=C/c3ccccc3)C(=O)CCCc3c[nH]c4ccccc34)CC2)CC1 (stereo in doubt; form 5)", "21 µM"],
  ["N=C(N)NC1CCC(CC2CCC(N(C/C(Cl)=C/c3ccccc3)C(=O)CCCc3c[nH]c4ccccc34)CC2)CC1 (stereo in doubt; form 1)", "9.6 µM"],
  ["COc1cc(Cl)c(CN(C(=O)CCCc2c(Cc3ccc(O)cc3)[nH]c3ccccc23)C2CCC(CC3CCC(N)CC3)CC2)cc1OC (stereo not drawn)", "8.3 µM"],
  ["NC1CCC(CC2CCC(N(Cc3ccccc3Cl)C(=O)CCCc3c(Cc4ccc(O)cc4)[nH]c4ccccc34)CC2)CC1 (stereo not drawn)", "26 µM"],
  ["NCCCCCCN(Cc1ccccc1)C(=O)CCCc1c(Cc2ccc(O)cc2)[nH]c2ccccc12", "36 µM"],
  ["NCCCCCN(Cc1ccc2ccccc2c1)C(=O)CCc1c[nH]c2ccccc12", "58 µM"],
  ["NCCN(C(=O)Cc1ccc2ccccc2c1)C1CCc2ccccc2C1 (stereo not drawn)", "29 µM"]
]}

Reference source: ChEMBL document CHEMBL1149662
